Answer each item with its documented IC50.
Test: Inhibition of Phosphodiesterase 7
Write the answer as a number in nM, unit excluded.

Query IC50 for CCOC(=O)c1sc(Nc2nc(NC)c3c(n2)N(Cc2ccc(S(C)(=O)=O)cc2)CC3)nc1C
340

Tell me its IC50 given CCOC(=O)c1sc(Nc2nc(NCc3ccc(OC)c(OC)c3)c3c(ncn3CC)n2)nc1C as the entry.
150

Let me know recorded IC50 for CCOC(=O)c1sc(Nc2nc(N3CCNCC3)c3c(n2)N(Cc2cc(OC)c(OC)c(OC)c2)CCO3)nc1C , thanks.
5

Identify measured IC50 corresponding to CCOC(=O)c1sc(Nc2nc(N3CCN(C)CC3)c3c(n2)N(Cc2cc(OC)c(OC)c(OC)c2)CC3)nc1C
20

====

So I've got a bunch of compounds here, and I need their IC50 values.
Experiment: Inhibition of Phosphodiesterase 1

Please report IC50 for the following compound: COc1ccc(C2CNC(=O)C2)cc1OC1CCCC1 (stereo not given)
> 10 µM

Please look at this compound and report its IC50: CCCc1nn(C)c2c(=O)[nH]c(-c3cc(S(=O)(=O)N4CCN(C)CC4)ccc3OCC)nc12
> 10 µM

Identify measured IC50 associated with CCOC(=O)c1sc(Nc2nc(NC)c3ncn(Cc4ccc(S(C)(=O)=O)cc4)c3n2)nc1C
50 µM

Return IC50 (reported value) for this compound: CCOC(=O)c1sc(Nc2nc(NCc3ccc(OC)c(OC)c3)c3c(ncn3CC)n2)nc1C
0.22 µM

Look up IC50 of CCOC(=O)c1sc(Nc2nc(NCc3ccc(S(N)(=O)=O)cc3)c3c(ncn3CC)n2)nc1C and report it.
0.95 µM

====

Give measured IC50 for each item. Keep answers brief.
Assay: Inhibition of Phosphodiesterase 7
Provide only the numeric value, understood in µM.

Identify the reported IC50 for the following entry. CCOC(=O)c1sc(Nc2nc(N3CCNCC3)c3c(n2)N(Cc2cc(OC)c(OC)c(OC)c2)CCC3)nc1C
0.03

Write down IC50 measured for item CCOC(=O)c1sc(Nc2nc(NC)c3ncn(Cc4ccc(S(C)(=O)=O)cc4)c3n2)nc1C
0.09

Determine its reported IC50: CCOC(=O)c1sc(Nc2nc(N3CCN(C)CC3)c3c(n2)N(Cc2cc(OC)c(OC)c(OC)c2)CCC3)nc1C
0.15

Specify measured IC50 for CCOC(=O)c1sc(Nc2nc(N3CCNCC3)c3c(n2)N(Cc2cc(OC)c(OC)c(OC)c2)CC3)nc1C .
0.006

====

Experiment: Relative binding to Phosphodiesterase 3 and Phosphodiesterase 7, ratio of IC50
measured endpoint: Ratio
Format: numeric value only, no unit, no commentary.

Return the recorded Ratio value; entry: CCOC(=O)c1sc(Nc2nc(N3CCNCC3)c3c(n2)N(Cc2ccc(S(C)(=O)=O)cc2)CC3)nc1C
1030

Recall and state the measured Ratio for CCOC(=O)c1sc(Nc2nc(N3CCNCC3)c3c(n2)N(Cc2cc(OC)c(OC)c(OC)c2)CCO3)nc1C .
3850

Please report Ratio for the following compound: CCOC(=O)c1sc(Nc2nc(N3CCNCC3)c3c(n2)N(Cc2ccc(S(C)(=O)=O)cc2)CCC3)nc1C
392

// fetch Ratio given entry CCOC(=O)c1sc(Nc2nc(N3CCN(C)CC3)c3c(n2)N(Cc2cc(OC)c(OC)c(OC)c2)CCO3)nc1C
206

Give recorded Ratio. CCOC(=O)c1sc(Nc2nc(NCc3ccc(OC)c(OC)c3)c3c(ncn3CC)n2)nc1C
3.8

Provide only the value of recorded Ratio for CCOC(=O)c1sc(Nc2nc(N3CCN(C)CC3)c3c(n2)N(Cc2cc(OC)c(OC)c(OC)c2)CC3)nc1C
315

Read the entry CCOC(=O)c1sc(Nc2nc(N3CCNCC3)c3c(n2)N(Cc2cccnc2)CCC3)nc1C and write its reported Ratio.
390

For the compound CCOC(=O)c1sc(Nc2nc(NC)c3ncn(Cc4ccc(S(C)(=O)=O)cc4)c3n2)nc1C , give its measured Ratio value.
259

Look up and state reported Ratio for CCOC(=O)c1sc(Nc2nc(N3CCNCC3)c3c(n2)N(Cc2cc(OC)c(OC)c(OC)c2)CCC3)nc1C
734

Please give the documented Ratio of CCOC(=O)c1sc(Nc2nc(N3CCN(O)CC3)c3c(n2)N(Cc2ccccn2)CC3)nc1C
154

Please supply the value of reported Ratio for the item CCOC(=O)c1sc(Nc2nc(N3CCN(C)CC3)c3c(n2)N(Cc2cc(OC)c(OC)c(OC)c2)CCC3)nc1C
174

Fill in reported Ratio for this entry: CCOC(=O)c1sc(Nc2nc(N3CCNCC3)c3c(n2)N(Cc2cc(OC)c(OC)c(OC)c2)CC3)nc1C
1880
